Values compiled from paper PMC9583322.

Tested on: MCF7
Assay method text: SRB cytotoxicity assay
Type: cell-based, human
Details: Homo sapiens, MCF7, 72 h, 72 h treatment
pIC50: −log10 of the molar value.
Attribute measured: pIC50

Cc1cccc(COc2ccc(-c3noc(C)c3-c3ccc(Cl)cc3)cc2)n1 4.89
Cc1onc(-c2ccc(OCc3ccncc3)cc2)c1-c1ccc(Cl)cc1 4.84
Cc1onc(-c2ccc(OCc3cccnc3)cc2)c1-c1ccc(Cl)cc1 5.08

----------
System: HepG2
Assay method text: SRB cytotoxicity assay
Assay type: cell-based
Details: Homo sapiens, 72 h treatment
// IC50 lookup, one value per entry
Attribute measured: IC50 (nM)

Cc1ccccc1COc1ccc(-c2noc(C)c2-c2ccc(Cl)cc2)cc1 2100
Cc1ccccc1COc1ccc(-c2ccnn2-c2ccc(Cl)cc2)cc1 1400
